Listed compounds paired with reported KIDNEY_R
species: Rattus norvegicus; assay: Open TG-GATES - Regimen: Single; type: toxicity, organism-based, Sprague-Dawley; set-up: regimen Single, gender Male, age 6 weeks; details: in vivo, po, 10 mg/kg, 6 h, tissue Kidney, route gavage, dose level Low
Entry rule: numbers only, all in g.

compound | unitLabel | KIDNEY_R
CN(C)CCCN1c2ccccc2CCc2ccc(Cl)cc21 [CLOMIPRAMINE] | g | 1
CC(C)OC(=O)C(C)(C)Oc1ccc(C(=O)c2ccc(Cl)cc2)cc1 [FENOFIBRATE] | g | 0.8
CN(C)CCCN1c2ccccc2CCc2ccccc21 [IMIPRAMINE] | g | 0.9
CC1=C(/C=C/C(C)=C/C=C/C(C)=C/CO)C(C)(C)CCC1 [RETINOL] | g | 0.9

Here's the next entry for you.
For `CN(C)CCN(Cc1cccs1)c1ccccn1` , what is its reported KIDNEY_R?
0.9

* * *

Listed compounds paired with reported K
species: Rattus norvegicus; assay: Open TG-GATES - Regimen: Single; type: toxicity, organism-based, Sprague-Dawley; set-up: regimen Single, gender Male, age 6 weeks; settings: in vivo, po, 0 mg/kg, 24 h, tissue Plasma, route gavage, dose level Control
Entry rule: numbers only, all in meq/L.

For Cc1ccc(C)c(OCCCC(C)(C)C(=O)O)c1 [GEMFIBROZIL] , what is its reported K?
4.1

* * *

organism: Rattus norvegicus; assay: Open TG-GATES - Regimen: Daily Repeat; format: toxicity, organism-based, Sprague-Dawley; set-up: regimen Daily Repeat, gender Male, age 6 weeks; details: in vivo, po, 0 mg/kg, […], tissue Blood, route gavage, dose level Control, time 7 day
Listed molecules paired with reported Eos
Entry rule: numbers only, all in %.

Solved cases (4 shown):
molecule | unitLabel | experimentalResult
O=C(CCCN1CCC(O)(c2ccc(Cl)cc2)CC1)c1ccc(F)cc1 | % | 0.8
COc1ccc2[nH]c([S+]([O-])Cc3ncc(C)c(OC)c3C)nc2c1 (stereo not given) | % | 1
CCCNC(=O)NS(=O)(=O)c1ccc(Cl)cc1 [CHLORPROPAMIDE] | % | 1
CCOc1ccc(NC(=O)CC(C)O)cc1 (stereo not given) | % | 1.2

Here's the next entry for you.
For `CN1C(=O)CN=C(c2ccccc2)c2cc(Cl)ccc21` , what is its reported Eos?
1

* * *

species on record: Rattus norvegicus; experiment: Open TG-GATES - Regimen: Single; type: toxicity, organism-based, Sprague-Dawley; set-up: regimen Single, gender Male, age 6 weeks; conditions: in vivo, po, 100 mg/kg, 9 h, tissue Blood, route gavage, dose level High
Listed compounds paired with reported Lym
Enter the number, and then the unit.

Solved cases (3 shown):
smilesRepresentation | Lym
CN(C)CCCN1c2ccccc2CCc2ccccc21 | 73%
CN(C)CCCN1c2ccccc2CCc2ccc(Cl)cc21 | 71.2%
CC1=C(/C=C/C(C)=C/C=C/C(C)=C/CO)C(C)(C)CCC1 | 72.4%

Here's the next entry for you.
For `CN(C)CCN(Cc1cccs1)c1ccccn1` , what is its reported Lym?
72.2%

* * *

Listed compounds paired with reported BUN
species: Rattus norvegicus; experiment: Open TG-GATES - Regimen: Single; format: toxicity, organism-based, Sprague-Dawley; parameters: regimen Single, gender Male, age 6 weeks; conditions: in vivo, po, 10 mg/kg, 3 h, tissue Plasma, route gavage, dose level Low
Entry rule: numbers only, all in mg/dL.

Solved cases (3 shown):
compound | BUN, mg/dL
CN(C)CCN(Cc1cccs1)c1ccccn1 | 13.6
CN(C)CCCN1c2ccccc2CCc2ccc(Cl)cc21 | 9.8
CC(C)OC(=O)C(C)(C)Oc1ccc(C(=O)c2ccc(Cl)cc2)cc1 [FENOFIBRATE] | 9.8

For `CC1=C(/C=C/C(C)=C/C=C/C(C)=C/CO)C(C)(C)CCC1` , what is its reported BUN?
13.4

Okay, and `CN(C)CCCN1c2ccccc2CCc2ccccc21` ?
8.6
